Experiment: Individual serum elimination rate and half-life (linear regression per employee)
Details: individual estimate, subject 1, 5 samples
Would you mind labelling by HL (half-life)? At or over 2 year is y, under is n.

[
  {
    "SMILES_TEXT": "O=C(O)C(F)(F)C(F)(F)C(F)(F)C(F)(F)C(F)(F)F",
    "GROUP_LABEL": "y"
  },
  {
    "SMILES_TEXT": "O=S(=O)(O)C(F)(F)C(F)(F)C(F)(F)C(F)(F)F",
    "GROUP_LABEL": "n"
  },
  {
    "SMILES_TEXT": "O=S(=O)(O)C(F)(F)C(F)(F)C(F)(F)C(F)(F)C(F)(F)C(F)(F)C(F)(F)F",
    "GROUP_LABEL": "n"
  },
  {
    "SMILES_TEXT": "O=S(=O)(O)C(F)(F)C(F)(F)C(F)(F)C(F)(F)C(F)(F)F",
    "GROUP_LABEL": "n"
  }
]
